- assayComment: qHTS assay to identify small molecule antagonists of the retinoid acid receptor (RAR) signaling pathway - cell viability counter screen (AID 1159551); further: nearly all actives have a fitted effect of over 35% in size
- testParameters: C3RL4 cells viability, ATP luminescence (CellTiter-Glo), 6 h; series mostly up to 92.4 µM
Records with an inconclusive call do not appear. The source made the active and inactive calls. The call rests on the fitted dose curve; in most records, active means well fitted cell-killing curve with a large enough effect in the repeat runs; inconclusive means weak or mixed curves, or effect the other way; inactive means flat fitted curve, though single readings scatter.

compound	outcome
Cc1cc(NS(=O)(=O)c2ccc(N)cc2)no1	inactive
O=C(O)c1cc(-c2ccccc2)nc2ccccc12	inactive
OCCOCCOCCOCCO	inactive
O=S(=O)(O)c1cc(S(=O)(=O)O)c2c(N=Nc3ccccc3)c(O)ccc2c1	inactive
CC1CC(OC(=O)c2ccccc2O)CC(C)(C)C1 (configuration not stated)	inactive
CC(C)(C)C1CCC(O)CC1 (configuration not stated)	inactive
CCCCCCCCCC(=O)O	inactive

----------
- assayComment: qHTS RealTime-Glo MT Cell Viability Assay in HEK293 cells - 24 hour (AID 1224886); further: top concentration of the series differs between compounds; nearly all actives have a fitted effect of over 50% in size
- testParameters: RealTime-Glo luminescence; series mostly up to 76.8 µM
Results filed as inconclusive are left out. Activity calls are given as the source filed them. Calls follow the shape of the dose curve; as a rule, active = well fitted cell-killing curve with a large enough effect in the repeat runs; inconclusive = weak or mixed curves, or effect the other way; inactive = flat fitted curve, though single readings scatter.
experimentalReadout: outcome

compound	result
CCCCCCCCCC(=O)O	inactive
CCCCCCCCC	inactive
O=C(Oc1ccccc1)c1ccc(O)cc1	inactive
O=C1CCCCC1	inactive
O=[N+]([O-])C(CO)(CO)CO	inactive
O=C1N=C(O)CN1/N=C/c1ccc(-c2ccc([N+](=O)[O-])cc2)o1	inactive
Oc1ccc2ccccc2c1N=Nc1ccccc1	inactive
CCOC(=O)/C=C\C(=O)OCC	inactive
CN(C)c1cccc(O)c1	inactive
C[C@@H]1O[C@@H](OC[C@H]2O[C@@H](Oc3c(-c4ccc(O)c(O)c4)oc4cc(O)cc(O)c4c3=O)[C@H](O)[C@@H](O)[C@@H]2O)[C@H](O)[C@H](O)[C@H]1O	inactive
CC(C)(C)C1CCC(O)CC1 (stereo not drawn)	inactive
O=C(Cl)c1c(Cl)c(Cl)c(C(=O)Cl)c(Cl)c1Cl	inactive
Cn1c([N+](=O)[O-])cnc1COC(N)=O	inactive

----------
- assayComment: qHTS assay to identify small molecule antagonists of the vitamin D receptor (VDR) signaling pathway - cell viability counter screen (AID 743225); further: nearly all actives have a fitted effect of over 50% in size
- testParameters: VDR-bla HEK293T viability, CellTiter-Glo luminescence, 16 h; series mostly up to 61 µM
Results filed as inconclusive are left out. Active and inactive are the calls of the source. Calls come from the whole dose curve; as a rule, active = well fitted cell-killing curve with a large enough effect in the repeat runs; inconclusive = weak or mixed curves, or effect the other way; inactive = no such curve, though single readings can be large or run the other way.
Labels: YES for active, NO for inactive

compound	assignedClass
CCCCC/C=C\C/C=C\CCCCCCCC(=O)OC	NO
COCC(=O)O	NO
CCc1ccccc1O	NO
OC[C@@H](O)[C@H](O)[C@H](O)[C@@H](O)CO	NO
COC(=O)c1ccccc1O	NO
CCCCC(CC)COC(=O)CCCCCCCC(=O)OCC(CC)CCCC (centres undefined)	NO
O=C1CCCCC1	NO
CC(=O)CCc1ccccc1	NO
Nc1c(S(=O)(=O)O)cc(Br)c2c1C(=O)c1ccccc1C2=O	NO
Oc1ccc2ccccc2c1	NO
Cc1cc(O)c2c(c1)C(=O)c1cc(O)cc(O)c1C2=O	NO
O=C(O)c1ccc([N+](=O)[O-])cc1	NO
CCCCCCCCCCCCOCC1CO1 (centres undefined)	NO
Nc1cc(-c2ccncc2)c[nH]c1=O	NO
C=C(C)C(=O)OCCCCCCCCCCCC	NO
Oc1ccc(OCc2ccccc2)cc1	NO
CS(=O)(=O)c1ccc([C@@H](O)[C@@H](CO)NC(=O)C(Cl)Cl)cc1	NO
NC(=O)NNc1ccccc1	NO
C=C(C)C(=O)OCCCCCC	NO
O=C(c1cc(O)c(O)c(O)c1)c1ccc(O)c(O)c1O	NO
CC(C)(C)C(=O)C1C(=O)c2ccccc2C1=O	NO
CCOC(=O)C1OC1c1ccccc1 (centres undefined)	NO
CC1CC(OC(=O)c2ccccc2O)CC(C)(C)C1 (centres undefined)	NO
Cc1cc(=O)[nH]c(C(C)C)n1	NO
CCOC(=O)/C=C\C(=O)OCC	NO
CNC[C@H](O)[C@@H](O)[C@H](O)[C@H](O)CO	NO
CCOC(=O)[C@H](CCc1ccccc1)N[C@@H](C)C(=O)N1Cc2ccccc2C[C@H]1C(=O)O	NO
COC(=O)c1ccc(C(=O)OC)cc1	NO
CCCCCCCCCC(=O)O	NO
CCCCCCCCC	NO
Clc1ccc(Cl)c(Cl)c1Cl	NO
CS(=O)(=O)Nc1ccc([N+](=O)[O-])cc1Oc1ccccc1	NO
O=C(Oc1ccccc1)c1ccc(O)cc1	NO
Cc1cc(Cc2ccc(N)c(C)c2)ccc1N	NO
NCCc1ccc(O)c(O)c1	NO
CCC(=O)O	NO
CC1COc2ccccc2N1C(=O)C(Cl)Cl (centres undefined)	NO
NCc1cccc(CN)c1	NO
NC(=O)/N=N/C(N)=O	NO
S=c1nc[nH]c2nc[nH]c12	YES
O=C1O[C@H](CO)[C@@H](O)[C@H](O)[C@H]1O	NO
CCCCCC/C=C/CCCCCCCC(=O)O	NO
Cc1ccc(C(=O)O)o1	NO
c1ccc2[nH]cnc2c1	NO
CC1Cc2ccccc2N1NC(=O)c1ccc(Cl)c(S(N)(=O)=O)c1 (centres undefined)	NO
O=[N+]([O-])c1cccc(Cl)c1	NO
CCCCOCCO	NO
CC(C)(CO)COC(=O)C(C)(C)CO	NO
CCCCC(CC)COC(C)=O (centres undefined)	NO
CC(C)Cc1ccccc1	NO
OC[C@@H](O)[C@@H](O)[C@H](O)[C@@H](O)CO	NO
CCCCCCCCCCC=CC1CC(=O)OC1=O (centres undefined)	NO
CC1(C)O[C@@H]2C[C@H]3[C@@H]4C[C@H](F)C5=CC(=O)CC[C@]5(C)[C@H]4[C@@H](O)C[C@]3(C)[C@]2(C(=O)CO)O1	NO
Cc1ccc(N)c(S(=O)(=O)O)c1	NO
O=C(c1ccc(O)cc1)c1ccc(O)cc1O	NO
COC(=O)Nc1nc2ccc(Sc3ccccc3)cc2[nH]1	NO
CC1(C)CC(N=C=O)CC(C)(CN=C=O)C1 (centres undefined)	NO
CN(C)c1cccc(O)c1	NO
CCC(C)C=O (centres undefined)	NO

----------
- assayComment: qHTS assay to identify small molecule agonists of the estrogen receptor alpha (ER-alpha) signaling pathway in the presence of an antagonist - cell viability counter screen (AID 1259386);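 further: cells exposed to compounds for 22 h at 37 °C before the viability read; nearly all actives have a fitted effect of over 30% in size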
- testParameters: VM7Luc4E2 viability, CellTiter-Fluor fluorescence, 22 h; series mostly up to 92.4 µM
Inconclusive results are not listed. The source made the active and inactive calls. Calls follow the shape of the dose curve; as a rule, active = well fitted cell-killing curve with a large enough effect in the repeat runs; inconclusive = weak or mixed curves, or effect the other way; inactive = no such curve, though single readings can be large or run the other way.
Possible outcomes: 1 = active, 0 = inactive

compound	assignedClass
Cc1ccc(N)c(S(=O)(=O)O)c1	0
Oc1c(Cl)cc(Cl)c(Cl)c1Cl	0
CS(=O)(=O)c1ccc([C@@H](O)[C@@H](CO)NC(=O)C(Cl)Cl)cc1	0
Cc1ccc(C(=O)O)o1	0
CC[Si](OC(C)=O)(OC(C)=O)OC(C)=O	0
C=C(C)C(=O)OCCCCCCCCCCCC	0
CCCCC(CC)COC(=O)/C=C\C(=O)OCC(CC)CCCC (centres undefined)	0
O=c1c(-c2ccc(O)cc2)coc2cc(O)ccc12	0
OC[C@@H](O)[C@H](O)[C@H](O)[C@@H](O)CO	0
C[C@@H]1O[C@@H](OC[C@H]2O[C@@H](Oc3c(-c4ccc(O)c(O)c4)oc4cc(O)cc(O)c4c3=O)[C@H](O)[C@@H](O)[C@@H]2O)[C@H](O)[C@H](O)[C@H]1O	1
Cc1cc(Cc2ccc(N)c(C)c2)ccc1N	0
CCC(C)C=O (centres undefined)	0
Oc1ccc2ccccc2c1	0
O=C(Cl)c1c(Cl)c(Cl)c(C(=O)Cl)c(Cl)c1Cl	0
CCCCC(CC)COC(=O)CCCCCCCC(=O)OCC(CC)CCCC (centres undefined)	0
CCc1ccccc1O	0
OCC#CCO	0
CC(C)n1c(/C=C/[C@@H](O)C[C@@H](O)CC(=O)O)c(-c2ccc(F)cc2)c2ccccc21	0
CCCCNC(N)=O	0

----------
- assayComment: qHTS assay for small molecule activators of the heat shock response signaling pathway - cell viability counter screen (AID 743209); further: nearly all actives have a fitted effect of over 50% in size
- testParameters: HSE-bla HeLa viability, CellTiter-Glo luminescence, 5 h; series mostly up to 62.6 µM
Results filed as inconclusive are left out. The source made the active and inactive calls. Calls come from the whole dose curve; as a rule, active = well fitted cell-killing curve with a large enough effect in the repeat runs; inconclusive = weak or mixed curves, or effect the other way; inactive = no such curve, though single readings can be large or run the other way.
Labels: 1.0 = active, 0.0 = inactive

compound	assignedClass
Clc1cc(Cl)c(Cl)cc1Cl	0.0
CCCCC(CC)COC(=O)CCCCCCCC(=O)OCC(CC)CCCC (centres undefined)	0.0
CCCCCCCCC	0.0
C=C(C)C(=O)OCC(CC)(COC(=O)C(=C)C)COC(=O)C(=C)C	1.0
CCCCOCCOCCOC(=O)CCCCC(=O)OCCOCCOCCCC	0.0
c1ccc2ccccc2c1	0.0
CC(C)NCC(O)COc1cccc2ccccc12 (centres undefined)	0.0
NC(=O)/N=N/C(N)=O	0.0
O=[N+]([O-])c1cccc(Cl)c1	0.0
c1ccc2[nH]cnc2c1	0.0
CCCCNC(N)=O	0.0
CC(C)Cc1ccccc1	0.0
O=[N+]([O-])C(CO)(CO)CO	0.0
Nc1nc2ncc(CNc3ccc(C(=O)N[C@@H](CCC(=O)O)C(=O)O)cc3)nc2c(=O)[nH]1	0.0
CCCCC(CC)C(=O)OCCOCCOCCOC(=O)C(CC)CCCC (centres undefined)	0.0
CCc1ccccc1O	0.0
Cn1c([N+](=O)[O-])cnc1COC(N)=O	0.0
O=Nc1ccc(O)cc1	0.0
CC1=C(CC(=O)O)c2cc(F)ccc2/C1=C\c1ccc(S(C)=O)cc1 (centres undefined)	0.0
COC(=O)Nc1nc2ccc(Sc3ccccc3)cc2[nH]1	0.0
Cc1cc(O)cc(C)c1Cl	0.0
O=C(c1cc(O)c(O)c(O)c1)c1ccc(O)c(O)c1O	0.0
CC(C)(CO)COC(=O)C(C)(C)CO	0.0
CC(C)(C)C1CCC(O)CC1 (centres undefined)	0.0
COC(=O)c1ccccc1O	0.0
CC1=C(/C=C/C(C)=C/C=C/C(C)=C/CO)C(C)(C)CCC1	0.0
O=C(O)c1ccc([N+](=O)[O-])cc1	0.0
Cc1cc(=O)[nH]c(C(C)C)n1	0.0
OC[C@@H](O)[C@H](O)[C@H](O)[C@@H](O)CO	0.0
